Test system: A549 NSCLC
Experiment: NCI tumour cell line growth inhibition, 48 h
Some molecules, each annotated with its measured TGI.
I only need the number, in µM, no unit after it.

molecule | measured.parameter | value.unit | observed.result
COc1ccc2nc3cc(Cl)ccc3c(NCCCNCCC(C)O)c2c1 (stereo not given) | TGI | µM | 2.12

Fill blank: measured TGI of the molecule CCCCc1ccc(Nc2ncc3[nH]cnc3n2)cc1 is ____.
53.2

Requested read-out: TGI. Entry: COC(=O)[C@]12CC[C@@H](C)[C@H](C)[C@@H]1C1=CC[C@@H]3[C@@]4(C)C=C(O)C(=O)[C@@]5(C)COC(=C54)C[C@@]3(C)[C@]1(C)CC2
26

###

// values below are reported TGI
System: RPMI-8226 leukemia
Assay: NCI tumour cell line growth inhibition, 48 h

// below: answered compounds
compound | subject.of.test | measured.parameter | observed.result
CCCCOC(=O)NC(=O)c1cn(CCSCCOC(=O)NCCCCCCNC(=O)OCCSCCn2cc(C(=O)NC(=O)OCCCC)c(=O)[nH]c2=O)c(=O)[nH]c1=O | RPMI-8226 leukemia | TGI | > 100 µM
O=C(O)c1ccc(N/C=C2\C(=O)c3ccccc3OC2O)cc1O (stereo not drawn) | RPMI-8226 leukemia | TGI | 8.67 µg/mL
O=C1/C(=C/c2ccccc2[N+](=O)[O-])N=C(c2ccccc2)N1C1Nc2cc3c(cc2S1)NC(N1C(=O)/C(=C/c2ccccc2[N+](=O)[O-])N=C1c1ccccc1)S3 (stereo not drawn) | RPMI-8226 leukemia | TGI | 49.7 µM

Would you mind telling me what TGI value was observed for CCCCCCCCCCCCCCCCCCNc1ccn(C2OC(COP(=O)(O)OCC3OC(n4cc(C)c(=O)[nH]c4=O)CC3N=[N+]=[N-])C(O)C2O)c(=O)n1 (stereo not drawn) ?
32.7 µM

Please report the recorded TGI for C=C1C(=O)O[C@H]2[C@H]1CC/C(COC(=O)CSCC(=O)OC/C1=C/CC[C@@]3(C)O[C@H]3[C@H]3OC(=O)C(=C)[C@@H]3CC1)=C\CC[C@@]1(C)O[C@@H]21 .
4.01 µM

Which measured TGI value corresponds to COC(OC)C1OC(CO)C(n2ccc(N)nc2=O)C1O (stereo not drawn) ?
> 100 µM

Give its TGI value. Item: Cc1c(C)[n+](=O)c(C)c(C)n1[O-]
> 100 µM

Need TGI of CCOC(=O)C1SC(=Nc2ccc(Cl)c(Cl)c2)N=C1C (stereo not drawn) , thanks.
56.9 µM

Please give the measured TGI for this compound: COc1cccc(N(CN2CC=CC2=O)C(C)=O)c1
> 100 µM

Consider the compound O=C1COc2ccc([N+](=O)[O-])cc2C(=O)C1 and give its measured TGI.
> 10 µM

Which TGI value belongs to CO[C@@H]1CC(=O)C2(CC(=O)O[C@@H]2/C=C(\C)CCC=C(C)C)C[C@@H]1O (stereo partly drawn) ?
0.432 µM

If you can, please state the reported TGI value of COc1ccc(N=N/C(=N/NC(=O)c2ccccc2)c2ccc(N(CCC#N)CCC#N)cc2C)cc1 .
> 100 µM

Any idea what TGI was measured for O=c1cc(N2CCCC2)[nH]c(=O)n1-c1cccc(C(F)(F)F)c1 ?
> 100 µM

Can you share its TGI? I mean this compound: Cc1ccc(-c2cc(C3=CC(=O)C=CC3=O)n(-c3ccc(S(N)(=O)=O)cc3)n2)cc1
70.2 µM

Values compiled from PubChem BioAssay (NCI).
